The origin of these recorded values is ChEMBL document CHEMBL1156880.

# measurement_protocol: Selectivity for human plasma BuChE over electric eel AChE
# Type: cell-free
Threshold 80. Selectivity ratio below it: Fulfilled. Selectivity ratio at it or above: Not fulfilled.

[[record]]
smiles_input = "O=C(NCc1ccccc1)O[C@H]1CO[C@@H]2C=CO[C@H]12"
label_value = "Fulfilled"

[[record]]
smiles_input = "O=C(NCc1ccccc1)O[C@H]1CO[C@H]2[C@@H]1OC[C@H]2OC(=O)NCc1ccccc1"
label_value = "Not fulfilled"

[[record]]
smiles_input = "O=C(NCc1ccccc1)O[C@H]1CO[C@H]2[C@@H]1OC[C@H]2OCc1ccccc1"
label_value = "Not fulfilled"

[[record]]
smiles_input = "CCCNC(=O)O[C@H]1CO[C@H]2[C@@H]1OC[C@H]2OC(=O)NCCC"
label_value = "Fulfilled"

[[record]]
smiles_input = "CCOC(=O)/C=C1\\CO[C@@H]2[C@@H](OC(=O)NCc3ccccc3)CO[C@H]12"
label_value = "Fulfilled"

